measurement notes: Plasma stability in mouse plasma
experimental context: mouse plasma, 37° C., sampling up to 240 min
Protocol: The stability of the peptides in human and mouse plasma was determined by applying the following method: 315 μL/deep well of freshly thawed human plasma (Basler Blutspende-dienst) and mouse plasma (Harlan Sera-Lab, UK), respectively, were spiked with 35 μL/well of compound in PBS (100 μM, triplicate) and incubated at 37° C. […] The peak areas were determined and triplicate values are averaged. […] By using the TREND function of EXCEL (Microsoft Office 2003) T1/2 were determined.
Quick list: Plasmastability mouse pl. T1/2 per entry.
The reply should be a number in h, with the unit left off.

Which Plasmastability mouse pl. T1/2 reading was recorded for the compound CC[C@@H](C)[C@@H]1C(=O)N2CCC[C@H]2C(=O)N[C@@H](Cc2ccc(O)cc2)C(=O)N[C@@H](Cc2c[nH]cn2)C(=O)N[C@@H](C)C(=O)N[C@H]2CSSC[C@H](NC(=O)[C@H](Cc3ccc(O)cc3)NC(=O)[C@H](CCCNC(=N)N)NC(=O)[C@H](CCN)NC(=O)[C@H]3CCCN3C(=O)[C@H](C)NC(=O)[C@H](CO)NC2=O)C(=O)N[C@@H](Cc2ccc(O)cc2)C(=O)N[C@@H](CCC(N)=O)C(=O)N[C@@H](CCCCN)C(=O)N1C [compound 2] ?
4

Then there is this compound:
Any idea what Plasmastability mouse pl. T1/2 was measured for C[C@@H]1NC(=O)[C@H](CO)NC(=O)[C@@H]2CSSC[C@H](NC(=O)[C@H](Cc3ccc(O)cc3)NC(=O)[C@H](CCCNC(=N)N)NC(=O)[C@H](CCN)NC(=O)[C@@H](Cc3ccc(O)cc3)NC1=O)C(=O)N[C@@H](Cc1ccc(O)cc1)C(=O)N[C@@H](CCC(N)=O)C(=O)N[C@@H](CCCCN)C(=O)N(C)[C@H](C)C(=O)N1CCC[C@H]1C(=O)N[C@@H](Cc1ccc(O)cc1)C(=O)N[C@@H](Cc1c[nH]cn1)C(=O)N[C@@H](C)C(=O)N2 [compound 12] ?
4
